Where these numbers come from: patent US11667697

Documented EC50 across a set of binders
TARGET ENTITY: T1, VACV D8 protein (vaccinia virus, UniProt P04195 1-261)
T1 sequence: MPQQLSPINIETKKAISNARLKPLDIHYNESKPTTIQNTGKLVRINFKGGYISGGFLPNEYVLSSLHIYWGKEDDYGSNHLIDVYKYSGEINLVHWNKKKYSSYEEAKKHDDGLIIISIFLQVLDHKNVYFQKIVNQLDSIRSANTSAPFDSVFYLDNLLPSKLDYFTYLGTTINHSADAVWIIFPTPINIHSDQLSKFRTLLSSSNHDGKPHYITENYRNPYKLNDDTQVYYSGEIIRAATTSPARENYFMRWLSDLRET
ASSAY COMMENT: lysate ELISA
Kindly answer with a numeric value in µg/mL, unit omitted.

VACV-304 (antibody, V domains shown, human IgG1, anti-D8) VH: EVQLVESGGGLVQPGGSLRLSCVVSGFTFSNYWMSWVRQAPGKGLEWVANIKQDGSKKYYVDSVTGRFTISRDNAKNSLYLQMNSLRAEDTAVYYCATLNLELAVDAISEALKWGQGTLVTVSS VL: SYELTQPPSVSVSPGQTARITCSGDALPKQFAYWYQQKPGQAPVVMIYKDSERPSGIPERFSGSSSGTTVTLTISGVQAEDEADYYCQSVDNSGTYEVFGGGTQLTVL = 0.04
MPXV-61 (antibody, V domains shown, human IgG1, anti-D8) V domain 1: QVQLVQSGAEVKKPGSSVKVSCKASGETFSRYAFSWVRLAPGQGLEWLGRIIPFIDIPNYAQKFQGRVTITADKSTSTAYMELSSLRSEDTAVYYCASSLPSTYYFGSGNYPWGNWLDPWGQGTLVTVSS V domain 2: QSVVTQPPSVSAAPGQNVTISCSGSSSNIGNNYVSWYHQLPGTAPKLLIYDNDKRPSGIPDRFSGSKSGTSATLGITGLQTGDEADYYCGTWDSSLSEVVFGGGTQVTVL = 0.007
MPXV-96 (antibody, V domains shown, human IgG1, anti-D8) VH: QVQLQQWGAGLLISSETLSLTCGVYGGSFSGYYWTWIRQPPGKGLEWIGEINYVGSTNYNPSLKSRVTMSVDTSKNHFSLSLSSVTAADTAVYYCARGLRGNSVCFDWGPGTLV VL: ELVMTQSPATLSVSPGERASLSCRASQSVSSNLAWYQQKPGQAPRLLIYGASTRATGLPARFSGSGSGTEFTLTISSLQSEDFAIYYCQQYNNWPRTFGQGTKVDI = 0.001

Please examine the following record next.
Enquiry: Any idea what its EC50 is? The binder is VACV-8 (antibody, V domains shown, human IgG1, anti-D8) VH: QVQLQQWGAGLLKPSETLSLTCAGYGGSFSGYFWSWIRQPPGKGLEWIGEINHSGSTDYNPSLKSRVTISLDTSKTQFSLKLSSVTAADTAVYYCARVMTGITNYYYYYGMDVWGQGTTVTF VL: DIQLTQSPSFLSASVGDRVTITCRASQDISSYLAWYQQKPGKAPKLLIYAASTLQSGVPSRFSGSESGTEFTLTISSLQPENFATYYCQHLNSYPRGYTFGQGTKVDIK
Return: 0.04
